Provenance of the data: PubChem BioAssay (NCI)

# Test system: HT29 colon
# procedure_text: NCI-60 one-dose screen, 48 h (100 = growth as untreated, 0 = no growth, -100 = all killed)
# conditions: 10 µM unless noted
The panel holds about 83,000 compounds, 20% with a hit somewhere; the sample as a whole holds those more often. Active and inactive are the calls of the source. The calls were made as follows: active = growth percent below 10; inactive = the rest.
observable: growth

{"columns": ["molecule", "growth"],
 "data": [
  ["O=C1NC(=O)C(=Cc2ccc(OCCCCC3CCCCC3)c(Cl)c2)C(=O)N1", "92.3% (inactive)"],
  ["CCCCC1(CCC)C(=O)NC(=S)NC1=O", "105% (inactive)"]
]}

Please give growth, item by item, for the list that follows.
1. COc1cc2c(c(OC)c1OC)-c1ccc([O-])c(=O)cc1[C@@H](NC(C)=O)CC2.COc1cc2c(c(OC)c1OC)-c1ccc([O-])c(=O)cc1[C@@H](NC(C)=O)CC2.[Cu+2]
2. Cc1cc(N(CCCl)CCCl)ccc1C=Nc1cccnc1
3. O=[N+]([O-])CC(c1ccccc1Cl)c1c(-c2ccccc2)[nH]c2ccccc12 (configuration not stated)
4. C[C@]12CC[C@H]3[C@@H](C[C@@H]4SC(Nc5ccccc5)=N[C@@]45CC(O)CC[C@]35C)[C@@H]1CCC2O (some centres not stated)
5. C[C@@H]1C[C@@]2(C)[C@@H](CC[C@@H]3[C@@H]2CC[C@]2(C)C(=O)CC[C@@H]32)CC1=O
6. CCCOC(=O)N[C@H]1CCc2c(Br)c(OC)c(OC)c(OC)c2-c2ccc(SC)c(=O)cc21
7. CCOC(=O)N[C@H]1CCc2c(Br)c(OC)c(OC)c(OC)c2-c2ccc(SC)c(=O)cc21
8. CC(C)=CC1C(C(=O)OCc2cccc(Oc3ccccc3)c2)C1(C)C (configuration not stated)

**A:**
["9.61% (active)", "91.6% (inactive)", "8.38% (active)", "-38.5% (active)", "91.8% (inactive)", "12.2% (inactive)", "13.1% (inactive)", "86.5% (inactive)"]

Quick request: growth for each listed item, please.
1. CN(CCCCN(C)CCOS(C)(=O)=O)CCOS(C)(=O)=O
2. O=C1CN=C(c2ccc(Cl)cc2)c2sccc2N1
3. COc1ccc(C(=O)c2cc(OC)c(OC)c(OC)c2)cc1OC(C)=O
4. COc1cc2c(=O)n(C3CCCCCCC3)c3c4cc[nH]c4ncc3c2cc1OC
5. CCCCCCCCCCCCCCCCCC1OC[C@H](COC(=O)O[C@@H](C(=O)O[C@H]2C[C@@]3(O)[C@@H](OC(=O)c4ccccc4)[C@@H]4[C@]5(OC(C)=O)CO[C@@H]5C[C@H](O)[C@@]4(C)C(=O)[C@H](OC(C)=O)C(=C2C)C3(C)C)[C@@H](NC(=O)c2ccccc2)c2ccccc2)O1 (some centres not stated)
6. CC[C@H](C)[C@H](NC(=O)c1cccn1C)C(=O)N(C)[C@H](C[C@@H](OC(C)=O)c1nc(C(=O)N[C@@H](Cc2ccccc2)C[C@H](C)C(=O)OC)cs1)C(C)C
7. CC(=O)Nc1ccc(NC(=O)c2ccc([As](O)O)cc2)cc1

**A:**
86.9% (inactive)
100% (inactive)
18.8% (inactive)
66.8% (inactive)
15.7% (inactive)
-18.1% (active)
112% (inactive)

###

Could you please report measured growth for the items listed next?
# System: SK-OV-3 ovarian
# procedure_text: NCI-60 one-dose screen, 48 h (100 = growth as untreated, 0 = no growth, -100 = all killed)
# conditions: 10 µM unless noted
This is part of a sample that, as a whole, favours compounds with a hit. Of some 83,000 tested, about 20% had one in any assay.
Answers are plain numbers, in %.

// known answers, use as guide
{"columns": ["compound", "growth / %"],
 "data": [
  ["CCCCCSC1C2C(=O)C(Br)=CC13CCNc1c(O)c4c5c(c13)=[N+]2CCC=5C=N4 (stereo not drawn)", -2.42],
  ["CC[C@H](C)[C@H](NC(=O)C12C3C4C1C1C2C3C41NC(C)=O)C(=O)N(C)[C@H](C[C@@H](OC(C)=O)c1nc(C(=O)N[C@@H](Cc2ccccc2)C[C@H](C)C(=O)OC)cs1)C(C)C (stereo partly drawn)", 48.5],
  ["CC(CO)NC1CCCCC1 (stereo not drawn)", 111],
  ["Cc1cc(-c2nc3cc(F)ccc3[se]2)cc(F)c1N", 73.6]
]}

Give one value of growth per listed compound.
1. COC(=O)CC[C@H](Cc1ccccc1)NC(=O)c1csc([C@@H](C[C@H](C(C)C)N(C)C(=O)[C@@H](NC(=O)[C@H]2CCCCN2C)C(C)C)OC(C)=O)n1
2. CC1=C(CCCOC(=O)CN)C2=C(C)C3(CC3)[C@@](C)(O)C(=O)C2=C1
3. COc1cc(/C=C\c2cc(OC)c(OC)c(OC)c2)cc(NS(=O)(=O)c2cccc(Cl)c2)c1OC

**A:**
1. 35.4
2. 51.3
3. 16.9

// batch mode: one growth value per listed entry
1. C/C(Cc1ccc(Cl)cc1)=C(\c1ccc(OCCN2CCOCC2)cc1)c1ccc(OC(=O)Cc2ccccc2)cc1
2. ClCCN(CCCl)c1ccc(OCc2ccccc2)cc1

**A:**
[109, 65.2]

Below is a list of compounds. For each, state its recorded growth.
1. CCOC(=O)N[C@H]1CCc2c(Br)c(OC)c(OC)c(OC)c2-c2ccc(SC)c(=O)cc21
2. O=C(CC1(O)C(=O)N(Cc2ccccc2)c2ccc(Cl)cc21)c1ccc(C(=O)NCC2CCC3(CC2)OOC2(CCCCC2)OO3)cc1 (stereo not drawn)
3. C=CC12CCN(CC1)C(C(O)c1ccnc3ccc(OC)cc13)C2 (stereo not drawn)

**A:**
1. 52.1
2. 68
3. 89.2

Give measured growth for every item shown.
1. C[C@]12CCc3sc(NCCc4ccccc4)nc3C1=CC[C@@H]1[C@@H]2CC[C@]2(C)C(=O)CC[C@@H]12
2. C[C@]12CC[C@@H]3c4ccc(Oc5nc(N6CC6)nc(N6CC6)n5)cc4CC[C@H]3[C@@H]1CCC2=O
3. CCOC(=O)c1c(C)n(Cc2ccccc2)c2cc(CN(C)C)c(O)cc12
4. O=C(CCCC1CCCCC1)OCC(Cl)(Cl)Cl
5. C#Cc1ccc2c(c1)C(c1ccccc1F)=NCC(=O)N2C

**A:**
[112, 36.1, 70.4, 101, 34]

**Q:** Fill in the blank: the reported growth of `CC[C@H](C)[C@H](NC(=O)c1nccn1C)C(=O)N(C)[C@H](C[C@@H](OC(C)=O)c1nc(C(=O)N[C@@H](Cc2ccccc2)C[C@H](C)C(=O)OC)cs1)C(C)C` is ____.
**A:** 19.4

###

# System: MDA-MB-435 melanoma
# procedure_text: NCI-60 one-dose screen, 48 h
# conditions: 10 µM unless noted
The panel holds about 83,000 compounds, 20% with a hit somewhere; the sample as a whole holds those more often. Calls of active or inactive are those of the source. How the source made its calls: active means growth percent below 10; inactive means the rest.
Hello, when you answer, please use one of the following outcomes: 1 (yes) for active, 0 (no) for inactive

**Q:** GET /call?item= `COc1cc(/C=C/[N+](=O)[O-])cc(OC)c1` returns the recorded outcome of this test.
**A:** 1 (yes)

**Q:** Also need O=C1C=C2C(=CCOC2O)O1 (stereo unspecified) , thanks.
**A:** 1 (yes)

**Q:** Field entry: `COc1ccc(S(=O)(=O)Nc2c(/C=C\c3cc(OC)c(OC)c(OC)c3)ccc(OC)c2O)cc1OC`
**A:** 1 (yes)

###

# Tested on: MALME-3M melanoma
# procedure_text: NCI-60 one-dose screen, 48 h
# conditions: 10 µM unless noted
About 83,000 compounds went through this panel and 20% of them were active in at least one assay; those are over-represented in the sample as a whole. Calls of active or inactive are those of the source. How the source made its calls: active means growth percent below 10; inactive means the rest.
Return exactly one item of 1 = active, -1 = inactive

Check out these entries, answers already filled in.
{"columns": ["compound", "discrete_label"],
 "data": [
  ["O=C(Nc1ccc([N+](=O)[O-])cc1)C(Cl)(Cl)Cl", -1],
  ["O=C(O)C1C(C(=O)O)C2(Cl)C(Cl)=C(Cl)C1(Cl)C2(Cl)Cl.[Hg] (centres undefined)", -1],
  ["OCCNC(Cc1ccccc1)c1ccc2c(c1)OCO2 (centres undefined)", -1]
]}

# next compound below
**Q:** Please share the test call associated with COC(=O)[C@H](Cc1c[nH]c2ccccc12)NC(=O)[C@@H](OC)[C@@H]1Cc2cc3cc(OC4CC(OC5CC(O)C(O)C(C)O5)C(O)C(C)O4)c(C)c(O)c3c(O)c2C(=O)[C@H]1OC1CC(OC2CC(OC3CC(C)(O)C(O)C(C)O3)C(O)C(C)O2)C(O)C(C)O1 (some centres undefined) .
**A:** 1
